MEASURED TARGET: FAK (Homo sapiens, UniProt Q05397)
Sequence (Q05397 whole entry): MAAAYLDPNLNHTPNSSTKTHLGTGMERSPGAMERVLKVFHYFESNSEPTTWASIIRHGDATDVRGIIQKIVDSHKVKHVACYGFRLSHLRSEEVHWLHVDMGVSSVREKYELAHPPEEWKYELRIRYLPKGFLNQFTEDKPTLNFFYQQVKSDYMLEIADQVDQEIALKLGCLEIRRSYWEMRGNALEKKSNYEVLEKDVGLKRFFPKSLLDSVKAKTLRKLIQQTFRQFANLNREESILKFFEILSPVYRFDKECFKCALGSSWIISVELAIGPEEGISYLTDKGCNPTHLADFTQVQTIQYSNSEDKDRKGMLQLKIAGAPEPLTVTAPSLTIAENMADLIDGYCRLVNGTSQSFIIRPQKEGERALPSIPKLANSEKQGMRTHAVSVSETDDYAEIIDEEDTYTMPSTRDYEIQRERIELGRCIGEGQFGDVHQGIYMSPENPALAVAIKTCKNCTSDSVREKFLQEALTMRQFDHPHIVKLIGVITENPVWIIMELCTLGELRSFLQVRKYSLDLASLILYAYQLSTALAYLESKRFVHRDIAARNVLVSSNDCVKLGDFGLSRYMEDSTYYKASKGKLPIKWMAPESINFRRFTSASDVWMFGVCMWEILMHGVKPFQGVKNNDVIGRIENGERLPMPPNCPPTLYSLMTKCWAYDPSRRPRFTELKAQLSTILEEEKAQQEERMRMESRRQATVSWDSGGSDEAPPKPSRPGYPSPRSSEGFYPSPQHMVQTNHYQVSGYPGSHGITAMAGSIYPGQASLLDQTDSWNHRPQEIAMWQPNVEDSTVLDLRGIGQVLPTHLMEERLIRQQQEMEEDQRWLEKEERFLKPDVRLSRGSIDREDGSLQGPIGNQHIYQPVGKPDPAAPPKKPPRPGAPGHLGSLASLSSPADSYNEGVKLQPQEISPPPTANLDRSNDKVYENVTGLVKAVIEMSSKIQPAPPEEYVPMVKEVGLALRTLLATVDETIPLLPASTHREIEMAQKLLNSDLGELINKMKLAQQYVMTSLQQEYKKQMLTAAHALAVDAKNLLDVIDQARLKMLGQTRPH
READOUT TYPE: pIC50
Expect pIC50 as a plain number equal to -log10 of the molar concentration.

Which pIC50 is reported with FAK (Homo sapiens, UniProt Q05397) for this entry: COc1cc(N2CCC(N3CCN(C)CC3)CC2)ccc1Nc1nc2c(c(Nc3ccccc3S(=O)(=O)NC(C)C)n1)CCN2 ?
8.80

====

MEASURED TARGET: UniProt:Q9UM73
READOUT TYPE: pIC50
Expect pIC50 as a plain number equal to -log10 of the molar concentration.

Which pIC50 is reported with UniProt:Q9UM73 for this entry: COc1cc(N2CCC(N3CCN(C)CC3)CC2)ccc1Nc1nc2c(c(Nc3ccccc3S(=O)(=O)NC(C)C)n1)CCN2 ?
8.62

====

EXPERIMENTAL PROTOCOL: Pharmacokinetic study
Format: in vivo, beagle dogs
REPORTED CONDITIONS: serum; Beagle dog, Male, 5 mg/kg PO; read-out: MRT INF_obs
READOUT TYPE: MRT inf
Returns: string containing the numeric result and its unit.

Item COc1cc(N2CCC(N3CCN(C)CC3)CC2)ccc1Nc1nc2c(c(Nc3ccccc3S(=O)(=O)NC(C)C)n1)CCN2 has what recorded MRT inf?
13.6 h

====

MEASURED TARGET: ALK (Homo sapiens)
Sequence (Q9UM73 19-1620): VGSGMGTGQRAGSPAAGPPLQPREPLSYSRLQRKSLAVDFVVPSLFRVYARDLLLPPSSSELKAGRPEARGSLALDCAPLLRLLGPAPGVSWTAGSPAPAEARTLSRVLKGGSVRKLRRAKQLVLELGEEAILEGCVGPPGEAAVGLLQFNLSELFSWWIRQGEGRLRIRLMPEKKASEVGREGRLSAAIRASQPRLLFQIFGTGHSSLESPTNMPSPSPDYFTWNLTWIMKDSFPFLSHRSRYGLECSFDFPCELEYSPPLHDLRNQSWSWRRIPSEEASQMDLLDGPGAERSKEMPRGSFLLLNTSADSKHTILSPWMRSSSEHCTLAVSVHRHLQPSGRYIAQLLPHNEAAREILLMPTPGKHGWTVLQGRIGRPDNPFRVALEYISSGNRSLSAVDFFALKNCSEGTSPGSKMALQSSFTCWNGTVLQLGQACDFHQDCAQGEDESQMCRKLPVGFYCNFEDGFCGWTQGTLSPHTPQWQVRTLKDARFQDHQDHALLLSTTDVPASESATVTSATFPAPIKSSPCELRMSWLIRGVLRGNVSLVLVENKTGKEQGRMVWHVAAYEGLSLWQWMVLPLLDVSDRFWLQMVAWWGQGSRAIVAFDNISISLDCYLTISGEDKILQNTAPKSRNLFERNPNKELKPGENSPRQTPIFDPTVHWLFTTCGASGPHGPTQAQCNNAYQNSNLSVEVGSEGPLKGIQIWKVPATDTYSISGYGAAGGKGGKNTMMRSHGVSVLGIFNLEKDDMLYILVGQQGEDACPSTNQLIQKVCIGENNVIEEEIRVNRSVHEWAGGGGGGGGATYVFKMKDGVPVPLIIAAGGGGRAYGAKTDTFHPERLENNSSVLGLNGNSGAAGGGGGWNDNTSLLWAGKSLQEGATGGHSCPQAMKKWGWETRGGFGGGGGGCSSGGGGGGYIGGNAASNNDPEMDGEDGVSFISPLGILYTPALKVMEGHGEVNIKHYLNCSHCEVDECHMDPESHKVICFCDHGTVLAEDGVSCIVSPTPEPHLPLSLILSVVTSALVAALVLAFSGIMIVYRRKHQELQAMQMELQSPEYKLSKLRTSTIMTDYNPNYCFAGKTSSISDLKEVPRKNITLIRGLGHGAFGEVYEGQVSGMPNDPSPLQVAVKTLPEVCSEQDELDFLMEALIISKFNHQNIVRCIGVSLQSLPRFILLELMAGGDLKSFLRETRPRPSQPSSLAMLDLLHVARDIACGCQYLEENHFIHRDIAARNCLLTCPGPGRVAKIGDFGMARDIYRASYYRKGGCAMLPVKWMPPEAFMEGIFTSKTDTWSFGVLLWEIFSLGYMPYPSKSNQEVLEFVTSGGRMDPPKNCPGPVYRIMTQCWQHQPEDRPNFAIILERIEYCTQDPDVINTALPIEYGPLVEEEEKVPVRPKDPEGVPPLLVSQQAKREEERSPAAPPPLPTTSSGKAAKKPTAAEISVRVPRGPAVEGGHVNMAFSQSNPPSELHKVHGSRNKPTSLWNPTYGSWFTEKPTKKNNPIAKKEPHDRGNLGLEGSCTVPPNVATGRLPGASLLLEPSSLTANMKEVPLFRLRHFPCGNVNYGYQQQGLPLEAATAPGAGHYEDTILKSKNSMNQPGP
READOUT TYPE: Ki (nM)
Provide only the numeric value, understood in nM.

Which Ki is reported with ALK (Homo sapiens) for this entry: COc1cc(N2CCC(N3CCN(C)CC3)CC2)ccc1Nc1nc2c(c(Nc3ccccc3S(=O)(=O)NC(C)C)n1)CCN2 ?
0.9

====

EXPERIMENTAL PROTOCOL: Pharmacokinetic study
Type: in vivo, SD rats
REPORTED CONDITIONS: SD, serum; Rat, Female, 5 mg/kg PO; read-out: MRT INF_obs
READOUT TYPE: MRT inf (h)
Provide only the numeric value, understood in h.

Item COc1cc(N2CCC(N3CCN(C)CC3)CC2)ccc1Nc1nc2c(c(Nc3ccccc3S(=O)(=O)NC(C)C)n1)CCN2 has what recorded MRT inf?
13.8

====

EXPERIMENTAL PROTOCOL: Pharmacokinetic study
Type: in vivo, beagle dogs
REPORTED CONDITIONS: both sexes, serum; Beagle dog, All, 5 mg/kg PO
READOUT TYPE: AUC(0-inf) (ng·h/mL)
Provide only the numeric value, understood in ng·h/mL.

Item COc1cc(N2CCC(N3CCN(C)CC3)CC2)ccc1Nc1nc2c(c(Nc3ccccc3S(=O)(=O)NC(C)C)n1)CCN2 has what recorded AUC(0-inf)?
459

====

EXPERIMENTAL PROTOCOL: Pharmacokinetic study
Assay type: in vivo, SD rats
REPORTED CONDITIONS: both sexes, SD, serum; Rat, All, 5 mg/kg PO
Description: […] […] The serum samples were collected by centrifugation and stored at –80 °C. Compound concentrations in the sample serums were further analyzed with an API-4000 LC-MS/MS system (Applied Biosystem, Foster City, USA), and pharmacokinetic parameters ( T 1/2, T max, C max, AUC 0-INF, Cl_F_obs, MRT INF_obs, and F(%)) were calcuated using the WinNonlin software (version 6.2; WinNonlin Professional, Pharsight, USA).
READOUT TYPE: half-life (min)
Provide only the numeric value, understood in min.

Item COc1cc(N2CCC(N3CCN(C)CC3)CC2)ccc1Nc1nc2c(c(Nc3ccccc3S(=O)(=O)NC(C)C)n1)CCN2 has what recorded half-life?
726

====

EXPERIMENTAL PROTOCOL: Pharmacokinetic study
Type: in vivo, SD rats
REPORTED CONDITIONS: SD, serum; Rat, Male, 5 mg/kg PO
READOUT TYPE: AUC(0-inf) (ng·h/mL)
Provide only the numeric value, understood in ng·h/mL.

Item COc1cc(N2CCC(N3CCN(C)CC3)CC2)ccc1Nc1nc2c(c(Nc3ccccc3S(=O)(=O)NC(C)C)n1)CCN2 [SY-707] has what recorded AUC(0-inf)?
13300

====

MEASURED TARGET: LTK (Homo sapiens, UniProt P29376)
Sequence (P29376 17-864): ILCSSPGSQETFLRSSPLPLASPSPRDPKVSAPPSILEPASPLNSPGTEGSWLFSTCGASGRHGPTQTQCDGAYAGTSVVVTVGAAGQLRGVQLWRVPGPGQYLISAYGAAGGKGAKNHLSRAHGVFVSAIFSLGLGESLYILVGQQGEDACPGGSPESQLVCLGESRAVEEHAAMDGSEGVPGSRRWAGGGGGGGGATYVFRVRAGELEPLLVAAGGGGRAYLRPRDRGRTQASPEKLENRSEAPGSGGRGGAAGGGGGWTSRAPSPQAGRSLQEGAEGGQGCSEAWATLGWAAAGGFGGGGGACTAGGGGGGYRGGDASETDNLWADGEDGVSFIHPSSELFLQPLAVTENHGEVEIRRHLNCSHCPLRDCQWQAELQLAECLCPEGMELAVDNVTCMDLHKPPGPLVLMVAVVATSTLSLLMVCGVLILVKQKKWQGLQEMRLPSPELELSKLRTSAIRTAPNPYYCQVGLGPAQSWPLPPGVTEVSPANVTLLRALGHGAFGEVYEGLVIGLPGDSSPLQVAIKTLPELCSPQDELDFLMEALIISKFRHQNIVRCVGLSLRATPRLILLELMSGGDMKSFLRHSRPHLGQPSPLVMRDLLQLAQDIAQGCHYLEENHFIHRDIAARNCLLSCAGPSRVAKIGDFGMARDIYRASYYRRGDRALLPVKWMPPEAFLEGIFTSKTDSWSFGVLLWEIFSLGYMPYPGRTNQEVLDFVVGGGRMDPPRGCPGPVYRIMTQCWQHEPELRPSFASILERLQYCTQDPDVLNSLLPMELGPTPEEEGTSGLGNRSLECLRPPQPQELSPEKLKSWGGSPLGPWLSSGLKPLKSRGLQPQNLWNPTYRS
READOUT TYPE: pIC50
Expect pIC50 as a plain number equal to -log10 of the molar concentration.

Which pIC50 is reported with LTK (Homo sapiens, UniProt P29376) for this entry: COc1cc(N2CCC(N3CCN(C)CC3)CC2)ccc1Nc1nc2c(c(Nc3ccccc3S(=O)(=O)NC(C)C)n1)CCN2 [SY-707] ?
8.72

====

EXPERIMENTAL PROTOCOL: Pharmacokinetic study
Format: in vivo, beagle dogs
REPORTED CONDITIONS: serum; Beagle dog, Female, 5 mg/kg PO
READOUT TYPE: Tmax
Returns: string containing the numeric result and its unit.

Item COc1cc(N2CCC(N3CCN(C)CC3)CC2)ccc1Nc1nc2c(c(Nc3ccccc3S(=O)(=O)NC(C)C)n1)CCN2 has what recorded Tmax?
2.67 h

====

MEASURED TARGET: FER (Homo sapiens)
Sequence (P16591 whole entry): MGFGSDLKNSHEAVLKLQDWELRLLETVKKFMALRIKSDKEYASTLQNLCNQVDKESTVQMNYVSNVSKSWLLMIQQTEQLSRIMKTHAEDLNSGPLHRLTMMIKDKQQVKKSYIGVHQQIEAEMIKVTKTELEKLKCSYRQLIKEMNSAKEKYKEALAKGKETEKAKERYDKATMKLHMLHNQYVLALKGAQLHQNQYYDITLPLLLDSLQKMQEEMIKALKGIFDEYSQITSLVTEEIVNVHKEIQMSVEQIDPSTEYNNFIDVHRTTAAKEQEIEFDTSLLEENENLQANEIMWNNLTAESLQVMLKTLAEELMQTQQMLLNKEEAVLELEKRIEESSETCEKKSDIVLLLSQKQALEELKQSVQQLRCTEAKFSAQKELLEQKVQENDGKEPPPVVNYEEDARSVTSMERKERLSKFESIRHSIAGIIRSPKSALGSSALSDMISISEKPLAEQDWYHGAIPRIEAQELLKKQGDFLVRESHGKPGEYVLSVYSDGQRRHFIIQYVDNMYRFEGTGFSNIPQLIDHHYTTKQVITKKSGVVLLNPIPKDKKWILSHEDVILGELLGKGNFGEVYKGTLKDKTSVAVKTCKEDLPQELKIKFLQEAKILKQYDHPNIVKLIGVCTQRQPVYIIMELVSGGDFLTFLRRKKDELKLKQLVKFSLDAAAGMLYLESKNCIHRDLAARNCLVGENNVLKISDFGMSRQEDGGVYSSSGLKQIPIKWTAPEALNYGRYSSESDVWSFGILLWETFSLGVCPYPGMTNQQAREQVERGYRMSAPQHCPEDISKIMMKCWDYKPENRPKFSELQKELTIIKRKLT
READOUT TYPE: pIC50
Expect pIC50 as a plain number equal to -log10 of the molar concentration.

Item COc1cc(N2CCC(N3CCN(C)CC3)CC2)ccc1Nc1nc2c(c(Nc3ccccc3S(=O)(=O)NC(C)C)n1)CCN2 has what recorded pIC50?
7.28

====

EXPERIMENTAL PROTOCOL: Pharmacokinetic study
Type: in vivo, beagle dogs
REPORTED CONDITIONS: both sexes, serum; Beagle dog, All, 5 mg/kg PO
READOUT TYPE: half-life (min)
Provide only the numeric value, understood in min.

Item COc1cc(N2CCC(N3CCN(C)CC3)CC2)ccc1Nc1nc2c(c(Nc3ccccc3S(=O)(=O)NC(C)C)n1)CCN2 has what recorded half-life?
583

====

EXPERIMENTAL PROTOCOL: Pharmacokinetic study
Type: in vivo, SD rats
REPORTED CONDITIONS: both sexes, SD, serum; Rat, All, 5 mg/kg PO; read-out: Cl_F_obs (converted)
Experimental: […] […] The serum samples were collected by centrifugation and stored at –80 °C. Compound concentrations in the sample serums were further analyzed with an API-4000 LC-MS/MS system (Applied Biosystem, Foster City, USA), and pharmacokinetic parameters ( T 1/2, T max, C max, AUC 0-INF, Cl_F_obs, MRT INF_obs, and F(%)) were calcuated using the WinNonlin software (version 6.2; WinNonlin Professional, Pharsight, USA).
READOUT TYPE: CL/F
Returns: string containing the numeric result and its unit.

Item COc1cc(N2CCC(N3CCN(C)CC3)CC2)ccc1Nc1nc2c(c(Nc3ccccc3S(=O)(=O)NC(C)C)n1)CCN2 has what recorded CL/F?
0.482 L/h/kg

====

EXPERIMENTAL PROTOCOL: Pharmacokinetic study
Type: in vivo, SD rats
REPORTED CONDITIONS: SD, serum; Rat, Male, 5 mg/kg PO
READOUT TYPE: Cmax (µg/mL)
Provide only the numeric value, understood in µg/mL.

Item COc1cc(N2CCC(N3CCN(C)CC3)CC2)ccc1Nc1nc2c(c(Nc3ccccc3S(=O)(=O)NC(C)C)n1)CCN2 has what recorded Cmax?
0.909

====

EXPERIMENTAL PROTOCOL: Pharmacokinetic study
Type: in vivo, beagle dogs
REPORTED CONDITIONS: serum; Beagle dog, Male, 5 mg/kg PO
READOUT TYPE: AUC(0-inf) (ng·h/mL)
Provide only the numeric value, understood in ng·h/mL.

Item COc1cc(N2CCC(N3CCN(C)CC3)CC2)ccc1Nc1nc2c(c(Nc3ccccc3S(=O)(=O)NC(C)C)n1)CCN2 has what recorded AUC(0-inf)?
479

====

MEASURED TARGET: FAK, Pyk2, LTK, IRK and IGF1R
EXPERIMENTAL PROTOCOL: HTRF kinase enzyme assay, summary over several kinases
REPORTED CONDITIONS: around; span over the named kinases
pIC50: −log10 of the molar value.
READOUT TYPE: pIC50

Item COc1cc(N2CCC(N3CCN(C)CC3)CC2)ccc1Nc1nc2c(c(Nc3ccccc3S(=O)(=O)NC(C)C)n1)CCN2 has what recorded pIC50?
8.00 to 9.00

====

Test system: MCF-7
EXPERIMENTAL PROTOCOL: Cell proliferation assay (CellTiter-Glo/CellTiter-Blue)
Format: cell-based
REPORTED CONDITIONS: Homo sapiens, MCF7, 72 h, read-out: IC50 anti-proliferation
READOUT TYPE: pIC50
Expect pIC50 as a plain number equal to -log10 of the molar concentration.

Which pIC50 is reported with MCF-7 for this entry: COc1cc(N2CCC(N3CCN(C)CC3)CC2)ccc1Nc1nc2c(c(Nc3ccccc3S(=O)(=O)NC(C)C)n1)CCN2 ?
6.23
